EXPERIMENT_NOTES: Relaxivity measurements at 1.4 T (MiniSpec mq60, 60 MHz, 37 °C) in water and human plasma
Assay type: physicochemical
MEASUREMENT_CONTEXT: 1.41 T, water, normalized to Gd
MEASURED_PARAMETER: r1 water (L/mmol/s)
Give the number; L/mmol/s is assumed, so skip it.

Reported r1 water ( CCOCCN(CC(=O)NCC(CNC(=O)CN(CCOCC)C(=O)CN1CCN(CC(=O)[O-])CCN(CC(=O)[O-])CCN(CC(=O)[O-])CC1)(CNC(=O)CN(CCOCC)C(=O)CN1CCN(CC(=O)[O-])CCN(CC(=O)[O-])CCN(CC(=O)[O-])CC1)CNC(=O)CN(CCOCC)C(=O)CN1CCN(CC(=O)[O-])CCN(CC(=O)[O-])CCN(CC(=O)[O-])CC1)C(=O)CN1CCN(CC(=O)[O-])CCN(CC(=O)[O-])CCN(CC(=O)[O-])CC1.[Gd+3].[Gd+3].[Gd+3].[Gd+3] [Example 4] ) = 11.1
